Every entry's value here was drawn from patent US7282507B2.

molecular target: androgen receptor (rat ventral prostate cytosol) (Rattus norvegicus); construct: from tissue; host or cells: ventral prostate cytosol of castrated male Sprague Dawley or Wistar rats; test: Androgen Receptor Binding Using Rat Ventral Prostate Cytosol; conditions: Concentration 3000 nM
Here the recorded inhibition at 3 µM is given for each entry.
Numbers only here, please. The scale is %.

Some compounds with known inhibition at 3 µM results, for comparison:
COMPOUND: CC(O)(CSc1ccc(N)cc1)c1cc2cc(Cl)c(C(F)(F)F)cc2[nH]1 (stereo not shown)
UNIT ABBREVIATION: %
inhibition at 3 µM: 110
--
COMPOUND: CSCC(C)(O)c1cc2cc(C#N)c(C(F)(F)F)cc2[nH]1 (stereo not shown)
UNIT ABBREVIATION: %
inhibition at 3 µM: 38
--
COMPOUND: CC(O)(CSCc1ccccc1)c1cc2cc([N+](=O)[O-])c(C(F)(F)F)cc2[nH]1 (stereo not shown)
UNIT ABBREVIATION: %
inhibition at 3 µM: 65

Query :: Reported inhibition at 3 µM, compound CCSCC(O)(CC)c1cc2cc([N+](=O)[O-])c(C(F)(F)F)cc2[nH]1 (stereo not shown) : ____
Result :: 62

====

molecular target: androgen receptor (rat ventral prostate cytosol) (Rattus norvegicus, UniProt P15207); construct: from tissue; host or cells: ventral prostate cytosol of castrated male Sprague Dawley or Wistar rats; assay: Androgen Receptor Binding Using Rat Ventral Prostate Cytosol; conditions: Concentration 1000 nM; read-out: % Inhibition, Androgen Receptor Binding (Rat Cytosol)
Sequence (P15207 whole entry S389L): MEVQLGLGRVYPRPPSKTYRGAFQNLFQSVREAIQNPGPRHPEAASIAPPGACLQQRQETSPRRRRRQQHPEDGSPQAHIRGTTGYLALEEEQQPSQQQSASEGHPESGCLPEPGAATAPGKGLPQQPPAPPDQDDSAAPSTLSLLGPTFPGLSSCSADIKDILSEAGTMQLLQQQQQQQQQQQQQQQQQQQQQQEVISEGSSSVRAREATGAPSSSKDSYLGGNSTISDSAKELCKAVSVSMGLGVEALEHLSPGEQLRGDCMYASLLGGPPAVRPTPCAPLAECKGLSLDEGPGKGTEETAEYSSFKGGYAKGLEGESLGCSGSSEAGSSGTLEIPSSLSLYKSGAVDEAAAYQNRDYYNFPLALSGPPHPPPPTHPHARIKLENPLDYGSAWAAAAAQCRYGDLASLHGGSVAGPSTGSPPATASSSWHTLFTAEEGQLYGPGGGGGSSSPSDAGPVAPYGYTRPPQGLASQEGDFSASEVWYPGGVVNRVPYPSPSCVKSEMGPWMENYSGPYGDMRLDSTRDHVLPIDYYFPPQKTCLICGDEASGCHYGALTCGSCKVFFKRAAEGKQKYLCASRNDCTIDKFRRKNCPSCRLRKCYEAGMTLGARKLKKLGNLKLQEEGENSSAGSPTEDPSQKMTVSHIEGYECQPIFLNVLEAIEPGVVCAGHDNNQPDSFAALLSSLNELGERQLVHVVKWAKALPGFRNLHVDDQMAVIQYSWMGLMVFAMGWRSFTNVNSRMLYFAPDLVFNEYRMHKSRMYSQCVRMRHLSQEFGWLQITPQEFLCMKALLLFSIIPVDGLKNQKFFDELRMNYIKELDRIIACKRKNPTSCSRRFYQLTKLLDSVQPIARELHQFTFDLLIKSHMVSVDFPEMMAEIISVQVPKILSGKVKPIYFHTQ
I would appreciate it if you labelled entries Criterion met when inhibition at 1 µM is 60% or higher, otherwise Criterion not met.

Example results:
COMPOUND: CC(O)(CSc1ccc(Cl)cc1)c1cc2cc(Cl)ccc2[nH]1 (centres unmarked)
TARGET DESC: androgen receptor (rat ventral prostate cytosol) (Rattus norvegicus, UniProt P15207)
GROUP: Criterion met

COMPOUND: CC(O)(CSc1ccc(F)cc1)c1cc2cc(Cl)ccc2[nH]1 (centres unmarked)
TARGET DESC: androgen receptor (rat ventral prostate cytosol) (Rattus norvegicus, UniProt P15207)
GROUP: Criterion met

COMPOUND: CC(O)(CSc1ccc(Cl)c(Cl)c1)c1cc2cc(Cl)c(C(F)(F)F)cc2n1S(C)(=O)=O (centres unmarked)
TARGET DESC: androgen receptor (rat ventral prostate cytosol) (Rattus norvegicus, UniProt P15207)
GROUP: Criterion met

Query :: Entry CC(O)(C[S+]([O-])c1ccccc1)c1cc2cc(Cl)c(C(F)(F)F)cc2[nH]1 (centres unmarked) : is its inhibition at 1 µM no less than 60%?
Result :: Criterion not met

Query :: Next record, please: COC(=O)c1ccc2[nH]c(C(C)(O)CSc3ccc(Cl)cc3)cc2c1 (centres unmarked)
Result :: Criterion not met

Query :: Then CC(O)(CSc1ccccc1Cl)c1cc2cc(Cl)c(C(F)(F)F)cc2[nH]1 (centres unmarked) ?
Result :: Criterion met

Query :: Let us now turn to CC(O)(COC(=O)c1cccc(Cl)c1)c1cc2cc([N+](=O)[O-])c(C(F)(F)F)cc2[nH]1 (centres unmarked)
Result :: Criterion met

Query :: Entry to check: CC(O)(CSc1ccc(F)cc1)c1cc2cc(C#N)c(C(F)(F)F)cc2[nH]1 (centres unmarked)
Result :: Criterion not met

Query :: Can you handle CC(O)(CSc1ccccc1)c1cc2cc(Cl)c(C(F)(F)F)cc2[nH]1 (centres unmarked) next?
Result :: Criterion met

Query :: And then CC(O)(COC(=O)c1ccc(Cl)cc1)c1cc2cc(Cl)ccc2[nH]1 (centres unmarked) , what is it?
Result :: Criterion not met

Query :: And for COC(=O)c1ccc2c(c1)cc(C(C)(O)CSc1ccccc1)n2S(C)(=O)=O (centres unmarked) ?
Result :: Criterion not met

Query :: And CC(O)(COC(=O)c1ccc(Cl)c(Cl)c1)c1cc2cc([N+](=O)[O-])c(C(F)(F)F)cc2[nH]1 (centres unmarked) ?
Result :: Criterion not met

Query :: And for CC(O)(COC(=O)c1ccccc1C(F)(F)F)c1cc2cc(NC(=O)C(F)(F)F)c(C(F)(F)F)cc2[nH]1 (centres unmarked) ?
Result :: Criterion not met

Query :: Same read-out for CC(O)(COC(=O)c1cccnc1)c1cc2cc(C#N)c(C(F)(F)F)cc2[nH]1 (centres unmarked) ?
Result :: Criterion not met

Query :: Can you handle CC(O)(CSc1ccccc1)c1cc2cc(C#N)c(C(F)(F)F)cc2[nH]1 (centres unmarked) next?
Result :: Criterion not met

Query :: Input COC(=O)c1ccc2c(c1)cc(C(C)(O)CSC1CCCCC1)n2S(C)(=O)=O (centres unmarked)
Result :: Criterion not met
